Recorded values, source PubChem BioAssay (NCI).

Test system: SF-268 CNS
ASSAY NAME: NCI-60 one-dose screen, 48 h (100 = growth as untreated, 0 = no growth, -100 = all killed)
CONDITION SUMMARY: 10 µM unless noted
Compounds without any hit were thinned out: in the full panel of roughly 83,000, 20% have a hit.
Overview of recorded growth for various compounds
PROPERTY NAME: growth (%)

[[record]]
compound = "COc1ccc(C2c3ccc4ccccc4c3Oc3ncnc(N)c32)cc1 (stereo not given)"
property_name = "growth"
endpoint_unit = "%"
number = 86.2

[[record]]
compound = "CCOC(=O)CC(=O)c1c(C)cc(C)cc1C"
property_name = "growth"
endpoint_unit = "%"
number = 107

[[record]]
compound = "CCCC(=O)Oc1ccc(/C(=C(/CC)Cc2ccccc2)c2ccc(OCCN3CCCC3)cc2)cc1"
property_name = "growth"
endpoint_unit = "%"
number = 67.4

[[record]]
compound = "COc1ccc2nc3cc(Cl)ccc3c(N3CCN(c4nccc(NCc5ccccc5)n4)CC3)c2c1"
property_name = "growth"
endpoint_unit = "%"
number = 72.3

[[record]]
compound = "CC(C)Oc1nc2c(c(=O)n(C)c(=O)n2C)n1C"
property_name = "growth"
endpoint_unit = "%"
number = 100

[[record]]
compound = "CC(C)(C)c1nn(-c2ccccc2)c2c1CC1(CN2Cc2ccc3c(c2)OCO3)C(=O)c2ccccc2C1=O"
property_name = "growth"
endpoint_unit = "%"
number = 111

[[record]]
compound = "O=[N+]([O-])c1cccc(-c2nc3sccn3c2-c2ccnc(NCCCNS(=O)(=O)c3ccc(F)cc3)n2)c1"
property_name = "growth"
endpoint_unit = "%"
number = 9.32

[[record]]
compound = "O=c1cc(-c2ccccc2)[nH]c2ccccc12"
property_name = "growth"
endpoint_unit = "%"
number = 50.5

[[record]]
compound = "NC(N)=Nc1ccc(S(=O)(=O)O)cc1"
property_name = "growth"
endpoint_unit = "%"
number = 110

[[record]]
compound = "CC/C=C\\C[C@H](O)C/C=C1/C(=O)C=C[C@@H]1C/C=C\\CCCC(=O)OC(C)C"
property_name = "growth"
endpoint_unit = "%"
number = 12.9


---

System: SNB-75 CNS
ASSAY NAME: NCI-60 one-dose screen, 48 h
CONDITION SUMMARY: 10 µM unless noted
This is part of a sample that, as a whole, favours compounds with a hit. Of some 83,000 tested, about 20% had one in any assay. Active and inactive are the calls of the source. Rule for the calls: active = growth percent below 10; inactive = the rest.
Possible outcomes: Y for active, N for inactive

[[record]]
molecule = "COc1ccc(C2Nc3ccccc3-n3cccc32)cc1 (centres undefined)"
discrete_label = "N"

[[record]]
molecule = "CN1CCCCC1CCN1c2ccccc2Sc2ccc(Cl)cc21 (centres undefined)"
discrete_label = "Y"

[[record]]
molecule = "CC[C@H](CO)Nc1nc(NCc2ccccc2)n2ncc(C(C)C)c2n1"
discrete_label = "Y"

[[record]]
molecule = "CCOC(=O)C(Cc1cc(I)c(O)c(I)c1)NC(=O)c1ccccc1 (centres undefined)"
discrete_label = "N"

[[record]]
molecule = "Cn1c(=O)c2[nH]c(C(O)C(O)C(O)C(O)CO)nc2n(C)c1=O (centres undefined)"
discrete_label = "N"

[[record]]
molecule = "CCCCCCCCCCCCS(=O)CC(C)O (centres undefined)"
discrete_label = "N"

[[record]]
molecule = "CNc1cc2nc3cc(NC)c(C)cc3cc2cc1C"
discrete_label = "N"

[[record]]
molecule = "COc1ccccc1N1CCN(CCn2c(=O)c3c(c4ccccc4n3C)n(C)c2=O)CC1"
discrete_label = "N"

[[record]]
molecule = "NC(CC(=O)O)C(=O)OCc1ccccc1 (centres undefined)"
discrete_label = "N"

[[record]]
molecule = "CC1(C)CC(=O)C(c2c(-c3ccccc3)[nH]c3[nH]c(=S)[nH]c(=O)c23)=C(O)C1"
discrete_label = "N"

[[record]]
molecule = "CCN(CC)CCCC(C)N/C(=C1\\C(=O)NC(=O)\\C1=C(/NC(C)CCCN(CC)CC)c1cccc(OC)c1)c1cccc(OC)c1 (centres undefined)"
discrete_label = "N"

[[record]]
molecule = "O=C1Nc2ccccc2C12CC(c1ccc(Cl)cc1)=NN2 (centres undefined)"
discrete_label = "N"

[[record]]
molecule = "CC(C)(C)c1nn(-c2ccccc2)c2c1CC1(CN2Cc2ccc3c(c2)OCO3)C(=O)c2ccccc2C1=O"
discrete_label = "N"

[[record]]
molecule = "O=C(/C=C/c1cccc(Br)c1)c1ccccc1"
discrete_label = "N"

